B1: Caulobacter ParB omega fusion; a variant is named by its letters at X, in order, B8GW30 (parent)
chain: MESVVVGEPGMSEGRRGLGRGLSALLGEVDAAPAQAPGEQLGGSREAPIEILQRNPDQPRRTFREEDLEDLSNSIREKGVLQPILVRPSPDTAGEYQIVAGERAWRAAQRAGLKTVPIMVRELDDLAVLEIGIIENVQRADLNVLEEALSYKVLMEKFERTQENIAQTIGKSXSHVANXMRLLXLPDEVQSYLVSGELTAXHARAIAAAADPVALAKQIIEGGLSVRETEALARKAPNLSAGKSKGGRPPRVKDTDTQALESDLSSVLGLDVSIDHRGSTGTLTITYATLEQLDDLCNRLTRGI

Variants of: B1
Assay: one-hybrid fitness for binding NBS DNA (the Noc-binding site; scaled: cognate 1, non-cognate 0); higher = stronger binding
Details: with NBS DNA site
Over roughly 81,000 sequences, “one-hybrid fitness for binding NBS DNA” has its median near -0.1; the highest 2% begin near 0.36. This is one part of a sample in which the highest values are shown more often than they occur.
Measure: one-hybrid fitness for binding NBS DNA

- Mutation Annotation: "RVDT"
  Observed: "≤ 0.2"
- Mutation Annotation: "QREK"
  Observed: "≤ 0.2"
- Mutation Annotation: "KHKS"
  Observed: "≤ 0.2"
- Mutation Annotation: "RVDR"
  Observed: 0.213
- Mutation Annotation: "DFAH"
  Observed: "≤ 0.2"
- Mutation Annotation: "RVNN"
  Observed: "≤ 0.2"
- Mutation Annotation: "RVNT"
  Observed: 0.576
- Mutation Annotation: "RLWR"
  Observed: 0.248
- Mutation Annotation: "PVMR"
  Observed: "≤ 0.2"
- Mutation Annotation: "LPLQ"
  Observed: "≤ 0.2"
- Mutation Annotation: "RLSK"
  Observed: "≤ 0.2"
- Mutation Annotation: "RITP"
  Observed: "≤ 0.2"
- Mutation Annotation: "RVDS"
  Observed: "≤ 0.2"
- Mutation Annotation: "FYPI"
  Observed: "≤ 0.2"
- Mutation Annotation: "WGTT"
  Observed: "≤ 0.2"
- Mutation Annotation: "VMTL"
  Observed: "≤ 0.2"
- Mutation Annotation: "AVRK"
  Observed: "≤ 0.2"
- Mutation Annotation: "SIAR"
  Observed: "≤ 0.2"
- Mutation Annotation: "RSTN"
  Observed: "≤ 0.2"
- Mutation Annotation: "RQRI"
  Observed: "≤ 0.2"
- Mutation Annotation: "PYDR"
  Observed: "≤ 0.2"
- Mutation Annotation: "RWVV"
  Observed: "≤ 0.2"
- Mutation Annotation: "RLPR"
  Observed: "≤ 0.2"
- Mutation Annotation: "KTKP"
  Observed: "≤ 0.2"
- Mutation Annotation: "CRSF"
  Observed: "≤ 0.2"
- Mutation Annotation: "RTTR"
  Observed: 0.571
- Mutation Annotation: "ERTA"
  Observed: "≤ 0.2"
- Mutation Annotation: "LCDV"
  Observed: "≤ 0.2"
- Mutation Annotation: "QRGK"
  Observed: 0.445
- Mutation Annotation: "RVNR"
  Observed: 0.55
- Mutation Annotation: "RLGH"
  Observed: "≤ 0.2"
- Mutation Annotation: "EMAT"
  Observed: "≤ 0.2"
- Mutation Annotation: "RITD"
  Observed: "≤ 0.2"
- Mutation Annotation: "QRDK"
  Observed: "≤ 0.2"
- Mutation Annotation: "VKNL"
  Observed: "≤ 0.2"
- Mutation Annotation: "RVNS"
  Observed: 0.521
